- Test system: CEM cells HIV-1 protection, formazan growth assay
- experimentalProtocol: NCI AIDS Antiviral Assay
- conditions: measured here: growth of uninfected CEM cells
pIC50: −log10 of the molar value.
Respond with y for pIC50 values of 4 and above, n for values below.

Q. Please indicate if the recorded pIC50 for COc1ccc(C[C@H]2COC(=O)[C@@H]2Cc2cc(OC)c(O)c(OC)c2)cc1OC meets or exceeds 4.
A. y

Q. State whether the measured pIC50 reaches 4, counting equality as reaching it, for O=C(O)c1ccc(CS(=O)c2ccc([N+](=O)[O-])cc2)c([N+](=O)[O-])c1 (stereo unspecified)
A. n

Q. Given the entry Cc1ccc2nc(CN3CCCC(O)C3)cc(=O)n2c1 (stereo unspecified) , answer whether its pIC50 meets or surpasses 4.
A. n

Q. Determine whether this compound has pIC50 no lower than 4: CN(C)c1ccc(/C=C2/N=C(c3ccccc3)OC2=O)cc1
A. n

Q. Reported pIC50 at or above 4? N=C(N)Oc1ccc(Cl)cc1
A. y

Q. Kindly determine if pIC50 recorded for O=c1[nH]c(=O)n([C@@H]2C[C@H](CO)[C@H](O)C2)cc1/C=C/Br is above or exactly 4.
A. n

Q. In plain terms: is recorded pIC50 at least 4 for COC1=CC(=O)NCCN1 ?
A. n

Q. Decide: pIC50 of O=C1CC2C(=O)C1C(C(=O)O)C2C(=O)O (stereo unspecified) >= 4?
A. n

Q. Textbook exercise: given the entry Nc1nc2c(ncn2C2CCC(CO)O2)c(=O)n1C(=O)c1ccccc1 (stereo unspecified) , state whether its pIC50 is greater than or equal to 4.
A. n

Next, consider the following compound.
Q. Hello, I need to know if O=C1c2ccccc2C(=O)N1CCCSCC(CO)SCCCN1C(=O)c2ccccc2C1=O (stereo unspecified) has measured pIC50 not below 4. Thanks!
A. n

Hey, just so you know, these numbers are from PubChem BioAssay AID179.
